# test_target: PCAF (Homo sapiens)
# Construct: gene KAT2B
# Sequence (Q92831 whole entry): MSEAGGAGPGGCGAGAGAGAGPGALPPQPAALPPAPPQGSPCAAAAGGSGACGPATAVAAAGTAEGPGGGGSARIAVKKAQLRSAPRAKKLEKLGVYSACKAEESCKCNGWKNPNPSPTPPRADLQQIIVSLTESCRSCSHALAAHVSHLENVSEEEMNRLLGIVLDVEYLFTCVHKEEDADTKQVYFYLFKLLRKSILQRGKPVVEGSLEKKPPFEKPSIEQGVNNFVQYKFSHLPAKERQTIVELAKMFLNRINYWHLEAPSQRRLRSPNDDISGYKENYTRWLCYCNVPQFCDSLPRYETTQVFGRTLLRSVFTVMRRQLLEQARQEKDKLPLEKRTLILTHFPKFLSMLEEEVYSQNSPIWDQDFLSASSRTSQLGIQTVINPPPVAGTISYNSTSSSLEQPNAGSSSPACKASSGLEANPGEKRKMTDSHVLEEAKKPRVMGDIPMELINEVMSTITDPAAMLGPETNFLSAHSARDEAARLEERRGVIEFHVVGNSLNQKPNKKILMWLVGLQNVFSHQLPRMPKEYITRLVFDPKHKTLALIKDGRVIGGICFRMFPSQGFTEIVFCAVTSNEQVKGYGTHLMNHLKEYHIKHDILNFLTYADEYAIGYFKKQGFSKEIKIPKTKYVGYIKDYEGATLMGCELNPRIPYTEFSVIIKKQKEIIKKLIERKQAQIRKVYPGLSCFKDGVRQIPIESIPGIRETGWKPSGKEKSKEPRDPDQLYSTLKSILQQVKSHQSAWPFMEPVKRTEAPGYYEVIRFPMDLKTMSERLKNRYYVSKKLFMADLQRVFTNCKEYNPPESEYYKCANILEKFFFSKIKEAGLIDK
# Set-up: Intact protein LC/MS covalent labelling, fragments in pools of five, 200 uM each, 4 °C
# experimental_parameters: 24 h, 4 °C, pool of five; 200 µM; covalent
Quick reference: PCAF of the listed items.

Worked cases, answers included:
compound=O=C(CCl)Nc1cccc(F)c1 assay_result=0
compound=C=CC(=O)Nc1ccc(C(=O)O)cc1 assay_result=0
compound=O=C(CCl)NCc1nc2ccccc2s1 assay_result=0
compound=CN(Cc1ccc(Cl)cc1)C(=O)CCl assay_result=0
compound="C=CC(=O)N1C(C)CNCC1C.O=C(O)C(F)(F)F (centres unmarked)" assay_result=0

Data request: Determine its reported PCAF: `COC(=O)c1ccc(Cl)c(NC(=O)CCl)c1`
Data returned: 0

###

# experiment_summary: in vitro
# Set-up: species or system HB2, HEK293
# experimental_parameters: human, ccd841 cells
reported_endpoint: viability at 48 h, 10 µM (%)
Give your result in % as a bare value.

compound=C=CC(=O)N=C1N=C2C=CC(I)=CN2Cc2ccccc21 reported_endpoint="viability at 48 h, 10 µM" assay_result=87.7
compound=O=C(CCl)NNC(=O)c1cc2c(s1)CCCC2 reported_endpoint="viability at 48 h, 10 µM" assay_result=62.6
compound=CCN(C(=O)CCl)C1=CCCCC1 reported_endpoint="viability at 48 h, 10 µM" assay_result=97.8
compound="C=CC(=O)NCC1CC12CCOCC2 (stereo not drawn)" reported_endpoint="viability at 48 h, 10 µM" assay_result=110
compound=O=C(CCl)Nc1ccccc1Cl reported_endpoint="viability at 48 h, 10 µM" assay_result=78.5
compound="Cc1ccccc1C(C)NC(=O)CCl (stereo not drawn)" reported_endpoint="viability at 48 h, 10 µM" assay_result=71.4

Pending compound:
Data request: Using known records, supply viability at 48 h, 10 µM for `O=C(CCl)Nc1cccc(Cl)c1N1CCOCC1`
Data returned: 78

###

# test_target: NUDT7 (Homo sapiens)
# Construct: residues 14-235, E. coli, pNIC28-Bsa4, N-terminal His6 tag removed by TEV, construct 26672 Da
# Sequence (P0C024 14-235): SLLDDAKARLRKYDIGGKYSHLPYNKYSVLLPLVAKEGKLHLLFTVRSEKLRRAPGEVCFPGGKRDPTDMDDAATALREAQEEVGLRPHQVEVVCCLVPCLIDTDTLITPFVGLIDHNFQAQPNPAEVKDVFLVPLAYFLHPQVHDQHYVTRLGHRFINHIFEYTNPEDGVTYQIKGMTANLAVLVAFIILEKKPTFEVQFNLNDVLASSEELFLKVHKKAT
# Set-up: Intact protein LC/MS covalent labelling, fragments in pools of five, 200 uM each, 4 °C
# experimental_parameters: 24 h, 4 °C, pool of five; 200 µM; covalent
# Protocol: Incubations were performed at 200 μM for each compound and 2 μM of protein (10 μM for BSA) for 24 h at 4 °C with moderate shaking. […] Following incubation, we used intact protein [compound left out] chromatography/mass spectrometry (LC/MS) to identify the fragments and quantify their labeling (Figure 3A). […]
reported_endpoint: NUDT7
Please respond with just the number, no unit label.

Worked cases, answers included:
compound=CC(C)CNC(=O)NC(=O)CCl test_target="NUDT7 (Homo sapiens)" reported_endpoint=NUDT7 assay_result=0
compound=Cl.O=C(CCl)N1CCN(Cc2cccs2)CC1 test_target="NUDT7 (Homo sapiens)" reported_endpoint=NUDT7 assay_result=0.08
compound="CC(NC(=O)CCl)c1ccc(Cl)cc1Cl (stereo not drawn)" test_target="NUDT7 (Homo sapiens)" reported_endpoint=NUDT7 assay_result=0.54

The record that follows has no NUDT7 shown yet.
Data request: State its NUDT7 for this compound: `C=CC(=O)NCC1=CCCCC1`
Data returned: 0

###

# test_target: OTUB2 (OTUB2A) (Homo sapiens)
# Construct: full length residues 1-234, E. coli BL21(DE3)-R3, His tag removed by TEV, construct 27312 Da
# Sequence (Q96DC9 whole entry, the tested form may be a part): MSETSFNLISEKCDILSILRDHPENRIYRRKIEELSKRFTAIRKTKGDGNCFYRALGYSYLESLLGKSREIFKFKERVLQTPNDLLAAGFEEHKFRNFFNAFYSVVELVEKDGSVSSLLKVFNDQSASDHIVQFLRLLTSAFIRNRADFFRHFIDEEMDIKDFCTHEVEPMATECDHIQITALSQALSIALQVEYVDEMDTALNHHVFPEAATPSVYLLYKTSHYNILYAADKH
# Design: Intact protein LC/MS covalent labelling, fragments in pools of five, 200 uM each, 4 °C
# experimental_parameters: 24 h, 4 °C, pool of five; 200 µM; covalent
reported_endpoint: OTUB2
Give the figure by itself; no unit, no explanation.

Solved entries (count: 5):
molecule=O=C(CCl)Nc1cc(C(F)(F)F)ccc1N1CCCC1 assay_result=0
molecule="CC(NC(=O)CCl)c1ccc(Cl)c(Cl)c1 (stereo not drawn)" assay_result=0.26
molecule="CC1CC(C)CN(C(=O)CCl)C1 (stereo not drawn)" assay_result=0.08
molecule=C=CC(=O)NCc1cnn2ccccc12 assay_result=0
molecule=Cc1noc(NC(=O)CCl)n1 assay_result=0

# context switch: different molecule, same OTUB2
Data request: Identify measured OTUB2 corresponding to `O=C(CCl)NC(=O)Nc1ccc2c(c1)OCO2`
Data returned: 0.53

###

# experiment_summary: in vitro
# Set-up: species or system HB2, CCD841
# experimental_parameters: human, hek293 cells
reported_endpoint: viability at 48 h, 10 µM (%)
Unit % implied. Number only.

molecule="O=C(CCl)NCC1CCS(=O)(=O)C1 (stereo not shown)" reported_endpoint="viability at 48 h, 10 µM" assay_result=117

Data request: Respond only with viability at 48 h, 10 µM recorded for `Cc1ccc([N+](=O)[O-])cc1NC(=O)CCl`
Data returned: 1.2

Data request: Quickly give me recorded viability at 48 h, 10 µM for `CN(CC(=O)N1CCOCC1)C(=O)CCl`
Data returned: 97.6

Data request: Please report viability at 48 h, 10 µM for the following molecule: `C=CC(=O)N1CCN(C(=O)OC(C)(C)C)CC1`
Data returned: 90.3

Data request: Give the reported value of viability at 48 h, 10 µM for this record: `Cc1nc(-c2cccc(NC(=O)CCl)c2)cs1`
Data returned: 1.7

Data request: Give the measured viability at 48 h, 10 µM for C=CC(=O)NC1CCc2cnn(C(C)C)c2C1 (stereo not shown)
Data returned: 97.7

Data request: Please look at this molecule and report its viability at 48 h, 10 µM: `Cc1csc(NC(=O)CCl)n1.Cl`
Data returned: 91.9

###

# experiment_summary: in vitro
# Parameters: species or system HB2, HEK293
# experimental_parameters: human, ccd841 cells
reported_endpoint: viability at 48 h, 10 µM (%)
Output spec: scalar in %, unitless text.

A selection of reference data follows.
compound=Cc1ccc(S(=O)(=O)N2CCN(C(=O)CCl)CC2)c(C)c1 assay_result=82.6
compound=C=CC(=O)Nc1ccc(N2CCCC2=O)cc1 assay_result=125

Data request: Report measured viability at 48 h, 10 µM; entry is C=CC(=O)N(C)C1CCCCNC1=O (stereo not drawn)
Data returned: 101

Data request: Return viability at 48 h, 10 µM for the following compound: CC1CCc2c(sc(NC(=O)CCl)c2C#N)C1 (stereo not drawn)
Data returned: 81.6

Data request: Given `O=C(CCl)Nc1ccccc1F` , respond with its viability at 48 h, 10 µM.
Data returned: 59

###

# experiment_summary: in vitro
# Set-up: species or system HB2, HEK293
# experimental_parameters: human, ccd841 cells
In this section we review reported viability at 48 h, 10 µM values for a set of compounds.
Entry rule: numbers only, all in %.

compound="CC(=O)Nc1ccc(NC(=O)CCl)c(C(F)(F)F)c1 [PCM-0102895]" reported_endpoint="viability at 48 h, 10 µM" assay_result=91.7

Data request: Note down viability at 48 h, 10 µM recorded for O=C(CCl)NNC(=O)C1CC1 [PCM-0102776]
Data returned: 88.4

Data request: Identify measured viability at 48 h, 10 µM corresponding to O=C(CCl)NCC1CCOC1 (stereo not shown) [PCM-0102596]
Data returned: 90.8

Data request: # return recorded viability at 48 h, 10 µM for input CC(=O)NC1CCCN(C(=O)CCl)C1 (stereo not shown) [PCM-0102934]
Data returned: 90

###

# test_target: NUDT7 (Homo sapiens)
# Construct: residues 14-235, E. coli, pNIC28-Bsa4, N-terminal His6 tag removed by TEV, construct 26672 Da
# Set-up: Intact protein LC/MS covalent labelling, fragments in pools of five, 200 uM each, 4 °C
# experimental_parameters: 24 h, 4 °C, pool of five; 200 µM; covalent
reported_endpoint: NUDT7
Reply with just the number.

compound="CCC1CCCCN1C(=O)CCl (stereo not drawn)" assay_result=0.04
compound=CC(C)c1cccc(NC(=O)CCl)c1 assay_result=0.1
compound=Cc1ccc(S(=O)(=O)NC(=O)CCl)cc1 assay_result=0
compound=O=C(CCl)Nc1cc2ccccc2cc1C(=O)O assay_result=0.17
compound=CC(C)(C)c1ccc(NC(=O)CCl)cc1 assay_result=0
compound=O=C(CCl)Nc1ccc(Cl)nc1 assay_result=0.25

Data request: Return value of NUDT7 for input `O=C(CCl)N1CCc2[nH]c3ccccc3c2C1` , no commentary.
Data returned: 0.22

Data request: Give NUDT7 for `O=C(CCl)N1CCOCC1`
Data returned: 0

Data request: Name the recorded NUDT7 of the item `Cc1nc(-c2ccc3c(c2)CCN3C(=O)CCl)cs1` in your answer.
Data returned: 0.46

Data request: Read off the recorded NUDT7 for `O=C(CCl)Nc1ccc(I)cc1`
Data returned: 0.09

Data request: Supply NUDT7 value. Item: `Cc1ccc(S(=O)(=O)N2CCN(C(=O)CCl)CC2)cc1C`
Data returned: 0.1

Data request: Give the measured NUDT7 for `Cc1cc(C)c(NC(=O)CCl)c(Cl)c1`
Data returned: 0.26

Data request: Write down NUDT7 measured for item `O=C(CCl)N1CCN(S(=O)(=O)c2ccc3ccccc3c2)CC1`
Data returned: 0

Data request: For the compound `C=CC(=O)N1CCC(C(=O)c2cccs2)CC1` , report NUDT7.
Data returned: 0

Data request: For the compound `COC(=O)c1c(NC(=O)CCl)sc2c1CCCC2` , give its measured NUDT7 value.
Data returned: 0.39

Data request: Read off the recorded NUDT7 for O=C(CCl)NC1CCC(C(F)(F)F)CC1 (stereo not drawn)
Data returned: 0

Data request: Fill in NUDT7 for record CC(NC(=O)CCl)c1ccc2c(c1)OCCO2 (stereo not drawn)
Data returned: 0.08

Data request: Output measured NUDT7 for this item: `O=C(CCl)N1CCN(S(=O)(=O)c2ccccc2)CC1`
Data returned: 0

Data request: Assign NUDT7 to the following record: C=CC(=O)N1CCC2C(CCCN2Cc2ccccc2)C1 (stereo not drawn)
Data returned: 0

Data request: Retrieve NUDT7 measured for `O=C(CCl)N1CCN(c2ccc(Cl)cc2[N+](=O)[O-])CC1` and print it.
Data returned: 0.29

Data request: Retrieve NUDT7 measured for `CC(=O)c1ccccc1NC(=O)CCl` and print it.
Data returned: 0

Data request: Could you please provide reported NUDT7 for CC(NC(=O)CCl)c1ccc2c(c1)CC(=O)N2 (stereo not drawn) ? Thanks!
Data returned: 0.22

Data request: Give the reported value of NUDT7 for this record: `O=C(CCl)NC(=O)Nc1ccc2c(c1)OCCCO2`
Data returned: 0

Data request: // fetch NUDT7 given entry CC1CCC(NC(=O)CCl)CC1 (stereo not drawn)
Data returned: 0

Data request: Consider the compound `COC(=O)c1cccc(NC(=O)CCl)n1` . State its measured NUDT7.
Data returned: 0

Data request: Dear colleague, please send me the reported NUDT7 for `N#Cc1c(NC(=O)CCl)sc2c1CCC2` when you can.
Data returned: 0

Data request: Assign NUDT7 to the following record: `Cc1ccc(-c2csc(NC(=O)CCl)n2)cc1`
Data returned: 0.4

Data request: Please report the measured NUDT7 for `C=CC(=O)N1CCN(C(=O)Cc2c(C)noc2C)CC1`
Data returned: 0

Data request: Name the recorded NUDT7 of the item `Cc1ccc(S(N)(=O)=O)cc1NC(=O)CCl` in your answer.
Data returned: 0

Data request: Return the recorded NUDT7 value; entry: `C=CC(=O)N1CCN(C(=O)OCC(C)C)CC1`
Data returned: 0
